Assay: in vivo
Conditions: male, BALB/c nu/nu, mouse, iv, 500 pmol, total radioactivity, SUV tumor
Non-standard residues stand in square brackets, D forms with d. Residues, ends and D or L forms follow the SMILES beside them. *: point of attachment. DOTA = O=C(O)CN1CCN(CC(=O)O)CCN(CC(=O)*)CCN(CC(=O)O)CC1; EuK = O=C(O)CC[C@H](NC(=O)N[C@@H](CCCCN*)C(=O)O)C(=O)O; 2Nal = N[C@@H](Cc1ccc2ccccc2c1)C(=O)O; Trx = NC[C@H]1CC[C@H](C(=O)O)CC1
result-type: SUV at 1 h
Answer format: value, then unit.

[
  {
    "compound": "O=C(O)CC[C@H](NC(=O)N[C@@H](CCCCNC(=O)[C@H](Cc1ccc2ccccc2c1)NC(=O)[C@H](Cc1c[nH]cn1)NC(=O)[C@H](Cc1c[nH]cn1)NC(=O)[C@H](Cc1c[nH]cn1)NC(=O)[C@H]1CC[C@H](CNC(=O)CN2CCN(CC(=O)O)CCN(CC(=O)O)CCN(CC(=O)O)CC2)CC1)C(=O)O)C(=O)O [PS10, EuK-NaI-H3-ChX-DOTA] ({DOTA-Trx}-HHH[2Nal]-EuK)",
    "SUV at 1 h": "0.65 SUV"
  }
]

Entry O=C(O)CC[C@H](NC(=O)N[C@@H](CCCCNC(=O)[C@H](Cc1ccc2ccccc2c1)NC(=O)[C@H]1CC[C@H](CNC(=O)[C@H](Cc2c[nH]cn2)NC(=O)[C@H](CCC(=O)O)NC(=O)[C@H](Cc2c[nH]cn2)NC(=O)[C@H](CCC(=O)O)NC(=O)[C@H](Cc2c[nH]cn2)NC(=O)[C@H](CCC(=O)O)NC(=O)[C@H](Cc2c[nH]cn2)NC(=O)[C@H](CCC(=O)O)NC(=O)CN2CCN(CC(=O)O)CCN(CC(=O)O)CCN(CC(=O)O)CC2)CC1)C(=O)O)C(=O)O [PS5, EuK-NaI-ChX-(HE)4-DOTA] ({DOTA}-EHEHEHEH[Trx][2Nal]-EuK) : reported SUV at 1 h = ? 0.86 SUV

====

Assay: in vitro
Type: in vitro ADME
Settings: mouse, serum
Non-standard residues stand in square brackets, D forms with d. Residues, ends and D or L forms follow the SMILES beside them. *: point of attachment. DOTA = O=C(O)CN1CCN(CC(=O)O)CCN(CC(=O)*)CCN(CC(=O)O)CC1; EuK = O=C(O)CC[C@H](NC(=O)N[C@@H](CCCCN*)C(=O)O)C(=O)O; 2Nal = N[C@@H](Cc1ccc2ccccc2c1)C(=O)O; Trx = NC[C@H]1CC[C@H](C(=O)O)CC1
result-type: metabolised at 24 h, 5 µM

# get_value(readout='metabolised at 24 h, 5 µM', item= O=C(O)CC[C@H](NC(=O)N[C@@H](CCCCNC(=O)[C@H](Cc1c[nH]cn1)NC(=O)[C@H](Cc1c[nH]cn1)NC(=O)[C@H](Cc1c[nH]cn1)NC(=O)[C@H](Cc1ccc2ccccc2c1)NC(=O)[C@H]1CC[C@H](CNC(=O)CN2CCN(CC(=O)O)CCN(CC(=O)O)CCN(CC(=O)O)CC2)CC1)C(=O)O)C(=O)O [[^177Lu]Lu-PS9, metal not drawn] ({DOTA-Trx}-[2Nal]HHH-EuK) ) ~40%

====

Assay: in vivo
Conditions: male, BALB/c nu/nu, mouse, iv, 500 pmol, total radioactivity, SUV kidneys
Non-standard residues stand in square brackets, D forms with d. Residues, ends and D or L forms follow the SMILES beside them. *: point of attachment. DOTA = O=C(O)CN1CCN(CC(=O)O)CCN(CC(=O)*)CCN(CC(=O)O)CC1; EuK = O=C(O)CC[C@H](NC(=O)N[C@@H](CCCCN*)C(=O)O)C(=O)O; 2Nal = N[C@@H](Cc1ccc2ccccc2c1)C(=O)O; Trx = NC[C@H]1CC[C@H](C(=O)O)CC1
result-type: SUV at 1 h (SUV)
# unit: SUV | format: bare number

Name the reported SUV at 1 h value associated with the molecule O=C(O)CC[C@H](NC(=O)N[C@@H](CCCCNC(=O)[C@H](Cc1ccc2ccccc2c1)NC(=O)[C@H](Cc1c[nH]cn1)NC(=O)[C@H](Cc1c[nH]cn1)NC(=O)[C@H](Cc1c[nH]cn1)NC(=O)[C@H]1CC[C@H](CNC(=O)CN2CCN(CC(=O)O)CCN(CC(=O)O)CCN(CC(=O)O)CC2)CC1)C(=O)O)C(=O)O [PS10, EuK-NaI-H3-ChX-DOTA] ({DOTA-Trx}-HHH[2Nal]-EuK) 8.13

SUV at 1 h lookup needed for O=C(O)CC[C@H](NC(=O)N[C@@H](CCCCNC(=O)[C@H](Cc1ccc2ccccc2c1)NC(=O)[C@H]1CC[C@H](CNC(=O)[C@H](CCC(=O)O)NC(=O)[C@H](CCC(=O)O)NC(=O)[C@H](CCC(=O)O)NC(=O)CN2CCN(CC(=O)O)CCN(CC(=O)O)CCN(CC(=O)O)CC2)CC1)C(=O)O)C(=O)O [PS8, EuK-NaI-ChX-E3-DOTA] ({DOTA}-EEE[Trx][2Nal]-EuK) , thanks. 3.89

====

Assay: in vivo
Conditions: male, BALB/c nu/nu, mouse, iv, 500 pmol, total radioactivity, SUV muscle
Non-standard residues stand in square brackets, D forms with d. Residues, ends and D or L forms follow the SMILES beside them. *: point of attachment. DOTA = O=C(O)CN1CCN(CC(=O)O)CCN(CC(=O)*)CCN(CC(=O)O)CC1; EuK = O=C(O)CC[C@H](NC(=O)N[C@@H](CCCCN*)C(=O)O)C(=O)O; 2Nal = N[C@@H](Cc1ccc2ccccc2c1)C(=O)O; Trx = NC[C@H]1CC[C@H](C(=O)O)CC1
Reported SUV at 1 h is given for each of the following molecules.
Provide the reading as a plain figure in SUV.

[
  {
    "molecule": "O=C(O)CC[C@H](NC(=O)N[C@@H](CCCCNC(=O)[C@H](Cc1ccc2ccccc2c1)NC(=O)[C@H]1CC[C@H](CNC(=O)[C@H](CCC(=O)O)NC(=O)[C@H](CCC(=O)O)NC(=O)[C@H](CCC(=O)O)NC(=O)CN2CCN(CC(=O)O)CCN(CC(=O)O)CCN(CC(=O)O)CC2)CC1)C(=O)O)C(=O)O [PS8, EuK-NaI-ChX-E3-DOTA] ({DOTA}-EEE[Trx][2Nal]-EuK)",
    "measured-value": 0.08
  },
  {
    "molecule": "O=C(O)CC[C@H](NC(=O)N[C@@H](CCCCNC(=O)[C@H](Cc1ccc2ccccc2c1)NC(=O)[C@H]1CC[C@H](CNC(=O)[C@H](CCC(=O)O)NC(=O)[C@H](Cc2c[nH]cn2)NC(=O)[C@H](CCC(=O)O)NC(=O)[C@H](Cc2c[nH]cn2)NC(=O)[C@H](CCC(=O)O)NC(=O)[C@H](Cc2c[nH]cn2)NC(=O)CN2CCN(CC(=O)O)CCN(CC(=O)O)CCN(CC(=O)O)CC2)CC1)C(=O)O)C(=O)O [PS4, EuK-NaI-ChX-(EH)3-DOTA] ({DOTA}-HEHEHE[Trx][2Nal]-EuK)",
    "measured-value": 0.11
  },
  {
    "molecule": "O=C(O)CC[C@H](NC(=O)N[C@@H](CCCCNC(=O)[C@H](Cc1ccc2ccccc2c1)NC(=O)[C@H](CCC(=O)O)NC(=O)[C@H](CCC(=O)O)NC(=O)[C@H](CCC(=O)O)NC(=O)[C@H]1CC[C@H](CNC(=O)CN2CCN(CC(=O)O)CCN(CC(=O)O)CCN(CC(=O)O)CC2)CC1)C(=O)O)C(=O)O [PS7, EuK-NaI-E3-ChX-DOTA] ({DOTA-Trx}-EEE[2Nal]-EuK)",
    "measured-value": 0.09
  }
]

Looking for the measured SUV at 1 h of O=C(O)CC[C@H](NC(=O)N[C@@H](CCCCNC(=O)[C@H](Cc1ccc2ccccc2c1)NC(=O)[C@H]1CC[C@H](CNC(=O)[C@H](Cc2c[nH]cn2)NC(=O)[C@H](Cc2c[nH]cn2)NC(=O)[C@H](Cc2c[nH]cn2)NC(=O)CN2CCN(CC(=O)O)CCN(CC(=O)O)CCN(CC(=O)O)CC2)CC1)C(=O)O)C(=O)O [PS11, EuK-NaI-ChX-H3-DOTA] ({DOTA}-HHH[Trx][2Nal]-EuK) , can you help? 0.11

====

Assay: in vivo
Conditions: male, BALB/c nu/nu, mouse, iv, 500 pmol, total radioactivity, SUV muscle
Non-standard residues stand in square brackets, D forms with d. Residues, ends and D or L forms follow the SMILES beside them. *: point of attachment. DOTA = O=C(O)CN1CCN(CC(=O)O)CCN(CC(=O)*)CCN(CC(=O)O)CC1; EuK = O=C(O)CC[C@H](NC(=O)N[C@@H](CCCCN*)C(=O)O)C(=O)O; 2Nal = N[C@@H](Cc1ccc2ccccc2c1)C(=O)O; Trx = NC[C@H]1CC[C@H](C(=O)O)CC1
As shown below, each of these compounds has a reported SUV at 2 h value.
Please reply with the bare figure in SUV and do not write the unit itself.

Below are worked cases with known answers.
[
  {
    "compound": "O=C(O)CC[C@H](NC(=O)N[C@@H](CCCCNC(=O)[C@H](Cc1ccc2ccccc2c1)NC(=O)[C@H]1CC[C@H](CNC(=O)[C@H](Cc2c[nH]cn2)NC(=O)[C@H](CCC(=O)O)NC(=O)[C@H](Cc2c[nH]cn2)NC(=O)[C@H](CCC(=O)O)NC(=O)[C@H](Cc2c[nH]cn2)NC(=O)[C@H](CCC(=O)O)NC(=O)CN2CCN(CC(=O)O)CCN(CC(=O)O)CCN(CC(=O)O)CC2)CC1)C(=O)O)C(=O)O [PS3, EuK-NaI-ChX-(HE)3-DOTA] ({DOTA}-EHEHEH[Trx][2Nal]-EuK)",
    "unit-label": "SUV",
    "SUV at 2 h": 0.1
  },
  {
    "compound": "O=C(O)CC[C@H](NC(=O)N[C@@H](CCCCNC(=O)[C@H](Cc1ccc2ccccc2c1)NC(=O)[C@H]1CC[C@H](CNC(=O)[C@H](Cc2c[nH]cn2)NC(=O)[C@H](Cc2c[nH]cn2)NC(=O)[C@H](Cc2c[nH]cn2)NC(=O)CN2CCN(CC(=O)O)CCN(CC(=O)O)CCN(CC(=O)O)CC2)CC1)C(=O)O)C(=O)O [PS11, EuK-NaI-ChX-H3-DOTA] ({DOTA}-HHH[Trx][2Nal]-EuK)",
    "unit-label": "SUV",
    "SUV at 2 h": 0.1
  }
]

# SUV at 2 h lookup, item O=C(O)CC[C@H](NC(=O)N[C@@H](CCCCNC(=O)[C@H](Cc1ccc2ccccc2c1)NC(=O)[C@H]1CC[C@H](CNC(=O)[C@H](CCC(=O)O)NC(=O)[C@H](Cc2c[nH]cn2)NC(=O)[C@H](CCC(=O)O)NC(=O)[C@H](Cc2c[nH]cn2)NC(=O)[C@H](CCC(=O)O)NC(=O)[C@H](Cc2c[nH]cn2)NC(=O)CN2CCN(CC(=O)O)CCN(CC(=O)O)CCN(CC(=O)O)CC2)CC1)C(=O)O)C(=O)O [PS4, EuK-NaI-ChX-(EH)3-DOTA] ({DOTA}-HEHEHE[Trx][2Nal]-EuK) 0.1
